Here's what we have: log10 of Ki numbers for Human immunodeficiency virus type 1 protease (Human immunodeficiency virus 1).
Response schema: value (number) is log10 of Ki in units of nM.

Completed entries (count: 5):
[[record]]
molecule = "COc1ccc(CCN[C@@H](C(=O)N[C@H](C(=O)NCc2nc3ccccc3[nH]2)C(C)C)[C@H](O)[C@H](Cc2ccccc2)NC(=O)[C@@H](NC(=O)OCc2ccccc2)C(C)C)cc1"
subject_of_test = "Human immunodeficiency virus type 1 protease (Human immunodeficiency virus 1)"
quantitative_result = 1.10

[[record]]
molecule = "COc1ccc(CN[C@@H](C(=O)N[C@H](C(=O)NCc2nc3ccccc3[nH]2)c2ccccc2)[C@H](O)[C@@H](N)Cc2ccccc2)cc1"
subject_of_test = "Human immunodeficiency virus type 1 protease (Human immunodeficiency virus 1)"
quantitative_result = 1.95

[[record]]
molecule = "CC(C)[C@H](NC(=O)[C@H](NCc1ccc(Br)cc1)[C@H](O)[C@H](Cc1ccccc1)NC(=O)[C@@H](NC(=O)c1ccc2ccccc2n1)C(C)(C)C)C(=O)NCc1nc2ccccc2[nH]1"
subject_of_test = "Human immunodeficiency virus type 1 protease (Human immunodeficiency virus 1)"
quantitative_result = 0.75

[[record]]
molecule = "CC(C)(C)[C@H](NC(=O)OCc1ccccc1)C(=O)N[C@@H](Cc1ccccc1)[C@@H](O)[C@@H](NCc1ccc(OCCO)cc1)C(=O)NCc1ccccc1"
subject_of_test = "Human immunodeficiency virus type 1 protease (Human immunodeficiency virus 1)"
quantitative_result = 1.53

[[record]]
molecule = "CC(C)[C@H](NC(=O)[C@H](NCc1ccccc1)[C@H](O)[C@H](Cc1ccccc1)NC(=O)[C@@H](NC(=O)[C@@H](O)Cc1ccccc1)C(C)(C)C)C(=O)NCc1ccccc1"
subject_of_test = "Human immunodeficiency virus type 1 protease (Human immunodeficiency virus 1)"
quantitative_result = 1.18


Moving on to the next molecule.
Which log10 of Ki is reported with Human immunodeficiency virus type 1 protease (Human immunodeficiency virus 1) for this entry: CCOc1ccc(CN[C@@H](C(=O)N[C@H]2c3ccccc3CC2O)[C@H](O)[C@H](Cc2ccccc2)NC(=O)OC(C)(C)C)cc1 (stereo partly specified) ?
1.96

These entries and their values trace back to ChEMBL document CHEMBL1128211.
